Quick list: binding signal per entry.
# target-desc: AT4G31550 (Arabidopsis thaliana, UniProt Q9SV15 228-325)
# Sequence (Q9SV15 228-325): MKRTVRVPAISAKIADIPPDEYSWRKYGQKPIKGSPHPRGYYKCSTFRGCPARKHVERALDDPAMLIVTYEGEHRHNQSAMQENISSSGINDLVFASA
# protocol: DPI-ELISA; DPI-ELISA, streptavidin 384-well plate, 1-2 pmol biotinylated dsDNA per well, crude native E. coli extract, anti-His detection; buffer as in Brand et al. [46],; high values mean tight binding
# conditions-used: tags: C-terminal His (pET-DEST42); label: 5' biotin on forward strand; dsDNA, one strand shown
Please reply with the bare figure in absorbance and do not write the unit itself.

Below, 5 sequences whose answers are already recorded.
AAAAAACCACCCAGTCTGTTTCTACTAAAA	0.54
AAAAAAGGGCGAGCGCTGGATCCACAAAA	0.505
AAAAAAACGGGTTGTGAATGTGGAAGAAAA	0.575
AAAAAACCCGCCGTCGTGATTATCACAAAA	0.73
AAAAAATAGCGACTTCGACTCTCAGTAAAA	0.76

Query :: Field: binding signal (AT4G31550 (Arabidopsis thaliana, UniProt Q9SV15 228-325)). Entry: AAAAAATTACTATTACACACTTGGGGAAAA
Result :: 0.6

Query :: Give binding signal (AT4G31550 (Arabidopsis thaliana, UniProt Q9SV15 228-325)) of the following sequence: AAAAAACTGGCGACTGCCAGTGGTAGAAAA
Result :: 0.385

Hey, just so you know, these numbers are from paper PMC3795721.
